Quick reference for melting point among some compounds

Examples with their reported melting point follow.
compound	melting point
ON=C1Cc2ccccc2C(=NO)c2ccccc21	220 to 221 °C
CC(C)OC1CCC(=O)N1S(=O)(=O)C=Cc1ccc([N+](=O)[O-])cc1 (stereo not given)	178 to 179 °C
COc1cc(OCCCN2CCOCC2)c(C=CC(=O)c2ccc(S(N)(=O)=O)cc2)cc1-c1cccs1	193 to 196 °C
COc1ccc2cccc(C(CNC(=O)CF)COS(C)(=O)=O)c2c1 (stereo not given)	122 to 124 °C
CC(C)(C)OC(=O)N1CCC(c2noc3c(C(F)(F)F)cccc23)CC1	111 to 113 °C

What measured melting point goes with Cc1cc(C(O)(C=Cc2ccc(Cl)cc2)C(F)(F)F)ccc1NC(=O)c1cccc(I)c1C(=O)NC(C)C (stereo not given) ?
65 to 75 °C

Sample CC(CCNC1=Nc2cccc3cccc1c23)c1cccnc1 (stereo not given) — what was its melting point?
160 to 163 °C
